- tested system: JAK1 (aa 850-1154, catalytic domain, GST-tag) (Homo sapiens)
- Construct: JAK1 (aa 850-1154) and TYK2 (aa 871-1187) are expressed with an N-terminally fused GST-tag; GST (N); purchased Carna Biosciences, Inc; host or cells: baculovirus expression system
- Sequence (P23458 850-1154): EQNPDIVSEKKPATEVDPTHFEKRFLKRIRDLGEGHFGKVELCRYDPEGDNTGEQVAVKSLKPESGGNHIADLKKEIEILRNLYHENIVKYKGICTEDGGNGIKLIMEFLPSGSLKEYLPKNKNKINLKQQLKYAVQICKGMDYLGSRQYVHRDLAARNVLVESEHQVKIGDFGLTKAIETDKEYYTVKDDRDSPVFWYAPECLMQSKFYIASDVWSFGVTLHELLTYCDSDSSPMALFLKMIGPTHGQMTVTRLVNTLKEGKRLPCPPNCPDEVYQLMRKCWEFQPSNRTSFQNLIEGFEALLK
- assay summary: JAK kinase assay (HTRF, phosphorylation of TK substrate-biotin), JAK1
- Assay type: biochemical
- condition description: ATP at Km (7 μM); read-out: JAK1 kinase inhibitory activity (EC50 indicator)
metric name: EC50

// solved cases for EC50 follow
Cc1ccc(C(=O)N2C3CCC2CN(c2ncnc4[nH]ccc24)C3)cc1S(N)(=O)=O : < 100 nM
O=C(c1ccccc1)N1CCN(c2ncnc3[nH]ccc23)CC12CC2 : < 100 nM
CS(=O)(=O)CCC(=O)N1CCN(c2ncnc3[nH]ccc23)CC12CC2 : < 100 nM
N#CC1(C(=O)N2CCN(c3ncnc4[nH]ccc34)CC23CC3)CCCC1 : 100 to 500 nM
Cc1ccc(C(=O)N2CCN(c3ncnc4[nH]ccc34)CC23CC3)s1 : < 100 nM
COc1cc(C(=O)N2[C@@H]3CC[C@H]2CN(c2ncnc4[nH]ccc24)C3)cs1 : < 100 nM
N#Cc1ccc(CC(=O)N2CCN(c3ncnc4[nH]ccc34)CC23CC3)cc1 : < 100 nM
Cc1c[nH]c2ncnc(N3CCN(C(=O)c4ccc(C#N)cc4)C4(CC4)C3)c12 : > 500 nM

Entry NC(=O)c1ccc(C(=O)N2CCN(c3ncnc4[nH]ccc34)CC23CC3)cc1 : reported EC50 = ?
< 100 nM
